// reported Kp at 1 h per item
Assay: Blood-brain barrier experiment, brain and plasma concentrations after IV dosing
Format: in vivo, CD-1 mice
Settings: CD-1, mouse, brain/plasma, iv, 1 mg/kg, IV 1 mg/kg; 1 h; read-out: Mean Ratio (Brain/Plasma)
Just the number, please, no unit after it.

- compound: "O=[N+]([O-])c1ccc([C@H](OP(=O)(N2CC2)N2CC2)C(F)(F)F)c2ccccc12"
  assayResult: 1.39

Now look at this entry.
Using the record for O=[N+]([O-])c1ccc([C@@H](OP(=O)(N2CC2)N2CC2)C(F)(F)F)c2ccccc12 (single isomer, unassigned) , report its Kp at 1 h.
0.54
